Biological target: T1, soluble human FcRn (human, UniProt P55899 24-297; P61769 21-119, biotinylated (Sulfo-NHS-LC-Biotin) in the ELISA; amine-coupled to CM5 chip in SPR)
T1 construct: also called shFcRn; biotinylated shFcRn
Test: ELISA, competitor human IgG
pIC50: −log10 of the molar value.
Measurement name: pIC50

Before answering, review these 3 worked examples.
RFXTGHFTGLYPC (Pen at 3; D-Thr at 8; Sar at 9; NMeLeu at 10; disulfide; C-terminal amide) [Peptide No. 240]; 4.15
RFXTGHFSGLYPC (Pen at 3; D-Ser at 8; Sar at 9; NMeLeu at 10; disulfide; C-terminal amide) [Peptide No. 241]; 4.64
RFXTGHFLGLYPC (Pen at 3; D-Leu at 8; Sar at 9; NMeLeu at 10; disulfide; C-terminal amide) [Peptide No. 219]; 5.40

[a] RFXTGHFNGLYPC (Pen at 3; D-Asn at 8; Sar at 9; NMeLeu at 10; disulfide; C-terminal amide) [Peptide No. 243]
[b] RFXTGHFEGLYPC (Pen at 3; D-Glu at 8; Sar at 9; NMeLeu at 10; disulfide; C-terminal amide) [Peptide No. 244]
Please choose the item with the lower pIC50 value from this pair: a and b Pick one and reply with its label. a
(a: 4.54, b: 5.19)
